# Tested on: WI-38
# Assay Remarks: Growth inhibition of human WI38 cells
# Assay type: functional, cell-based
Recorded IC50 by entry
Give just the numeric value; µg/mL need not be written.

Take a look at these entries with their results.
Compound: COc1cc([C@H]2OC[C@@H]3C(=O)OC[C@@H]32)cc(OC)c1OC [ZHEPIRESINOL]
System Under Test: WI-38
Result Unit: µg/mL
IC50: 57.7
--
Compound: COc1cc([C@@H]2OC[C@@H]3[C@H]2CO[C@H]3c2cc(OC)c3c(c2)OCO3)cc(OC)c1O
System Under Test: WI-38
Result Unit: µg/mL
IC50: 96.6

stdin: Form entry - test system: WI-38; read-out: IC50; compound: CC(=O)O[C@H]1C(=O)[C@@]2(C)[C@H]([C@H](OC(=O)c3ccccc3)[C@]3(O)C[C@H](OC(=O)[C@H](O)[C@@H](NC(=O)c4ccccc4)c4ccccc4)C(C)=C1C3(C)C)[C@]1(OC(C)=O)CO[C@@H]1C[C@@H]2O [PACLITAXEL]
stdout: 0.02

stdin: Entry COc1cc([C@H]2OC[C@@H]3C(c4cc(OC)c(O)c(OC)c4)OC[C@H]23)ccc1O (stereo not given in full) [MEDIORESINOL] please
stdout: 76.9
